Each record here notes measured melting point.

These solved cases illustrate the format of a correct answer.
In [3]: df
Out[3]:
                                   molecule       reported
0  NC(=O)c1cc(COC(=O)NCCC2CCN(c3ccc(-c4cccc(F)c4)cn3)CC2)on1  172 to 176 °C
1  CC(C)CC(OC(=O)NCCC1CCN(c2cccc(-c3ccc(F)cc3)n2)CC1)c1ccoc1 (racemic)  101 to 103 °C
2  NC(=O)c1cc(COC(=O)NCCC2CCN(c3ccc4cc(F)ccc4n3)CC2)on1  200 to 202 °C
3  CCOC(=O)c1cc(COC(=O)NCC2(F)CCN(c3nccc(C(F)(F)F)n3)CC2)on1  136 to 138 °C
4  NC(=O)c1cc(COC(=O)NCCC2CCN(c3ccc4cc(Cl)ccc4n3)CC2)on1  220 to 222 °C

Fill in the blank: the reported melting point of "O=C(NCCC1CCN(c2ccc3cc(Cl)ccc3n2)CC1)OCc1nc(-c2cccc(F)c2)no1" is ____.
134 to 136 °C

Fill in the blank: the reported melting point of "CNC(=O)c1cc(COC(=O)NCCC2CCN(c3ccc(-c4ccc(F)cc4)cc3)CC2)on1" is ____.
212 to 215 °C

Fill in the blank: the reported melting point of Cn1ccnc1C(OC(=O)NCCC1CCN(c2ccc3cc(Cl)ccc3n2)CC1)C(F)(F)F (racemic) is ____.
196 to 198 °C

Fill in the blank: the reported melting point of "Cc1onc(-c2ccccc2)c1COC(=O)NCCC1CCN(c2ccc3cc(Cl)ccc3n2)CC1" is ____.
110 to 112 °C

Fill in the blank: the reported melting point of CN(C)C1(CCNC(=O)OC(c2nccn2C)C(F)(F)F)CN(c2nnc(Cl)c3ccccc23)C1 (racemic) is ____.
168 to 170 °C

Fill in the blank: the reported melting point of "O=C(NCCC1CCN(c2ccc3cc(Cl)ccc3n2)CC1)OCc1nsc(-c2ccc(Cl)cc2)n1" is ____.
191 to 193 °C

Fill in the blank: the reported melting point of "CN(C)C(=O)c1cc(COC(=O)NCCC2CCN(c3cccc(-c4ccc(F)cc4)n3)CC2)on1" is ____.
81 to 83 °C

Fill in the blank: the reported melting point of "CNC(=O)c1cc(COC(=O)NC2CCN(c3nccc(C(F)(F)F)n3)CC2)on1" is ____.
197 to 199 °C

Fill in the blank: the reported melting point of "O=C(NCCC1CCN(c2ccc(-c3ccc(F)cc3)cn2)CC1)OCc1csnn1" is ____.
139 to 141 °C

Fill in the blank: the reported melting point of "CC(C)c1nc(COC(=O)NCC2CCN(c3nnc(Cl)c4ccccc34)CC2)no1" is ____.
139 to 141 °C

Fill in the blank: the reported melting point of "CNC(=O)c1cc(COC(=O)NCCC2CCN(c3ccc4cc(Cl)ccc4n3)CC2)on1" is ____.
200 to 202 °C

Fill in the blank: the reported melting point of "CNC(=O)c1cc(COC(=O)NCCC2CCN(c3ccc4cc(F)ccc4n3)CC2)on1" is ____.
180 to 182 °C

====

READOUT_KIND: melting point

These solved cases illustrate the format of a correct answer.
>>> print(df.to_string())
                                   compound   readout_kind       reported
0  CNC(=O)c1cc(COC(=O)NCCC2CCN(c3ccc(-c4ccc(F)cc4)cn3)CC2)on1  melting point  191 to 193 °C
1  CNC(=O)c1cc(COC(=O)NC2CCN(c3nnc(Cl)c4ccccc34)CC2)on1  melting point  208 to 210 °C

Fill in the blank: the reported melting point of "CC(C)c1nc(COC(=O)NCC2CCN(c3nccc4ccccc34)CC2)no1" is ____.
95 to 97 °C

Fill in the blank: the reported melting point of "CN(C)C(=O)c1cc(COC(=O)NCCC2CCN(c3ccc(-c4ccc(F)cc4)cn3)CC2)on1" is ____.
149 to 151 °C

Fill in the blank: the reported melting point of "Cn1ccc(COC(=O)NCCC2CCN(c3ccc(-c4ccc(F)cc4)cn3)CC2)n1" is ____.
154 to 156 °C

Fill in the blank: the reported melting point of "CNC(=O)c1cc(COC(=O)NCC2(F)CCN(c3nccc(C(F)(F)F)n3)CC2)on1" is ____.
187 to 189 °C

Fill in the blank: the reported melting point of "CC(C)c1nc(COC(=O)NCCC2CCN(c3ccc(-c4ccc(F)cc4)cn3)CC2)no1" is ____.
112 to 113 °C

Fill in the blank: the reported melting point of CNC(=O)c1cc(COC(=O)NCC2CCN(c3nnc(Cl)c4ccccc34)C2)on1 (racemic) is ____.
159 to 161 °C

Fill in the blank: the reported melting point of "CNC(=O)c1cc(COC(=O)NC2CCN(c3cnc4cc(Cl)ccc4n3)CC2)on1" is ____.
232 to 234 °C

Fill in the blank: the reported melting point of NC(=O)c1cc(COC(=O)NC2CCCN(c3nccc(C(F)(F)F)n3)CC2)on1 (racemic) is ____.
171 to 173 °C

====

Each record here notes measured melting point.

These solved cases illustrate the format of a correct answer.
>>> print(df.to_string())
                              line_notation   readout_kind       reported
0  COc1ccc(-c2nnc(COC(=O)NCCC3CCN(c4ccc5cc(Cl)ccc5n4)CC3)o2)cc1  melting point  154 to 156 °C
1  CN(C)C(=O)c1cc(COC(=O)NCCC2CCN(c3ccc4cc(Cl)ccc4n3)CC2)on1  melting point  114 to 116 °C
2  CC(C)c1nc(COC(=O)NCC2CCN(c3nccc(C(F)(F)F)n3)CC2)no1  melting point  104 to 106 °C

Moving on to the next compound.
Fill in the blank: the reported melting point of "O=C(NCCC1CCN(c2ccc3cc(Cl)ccc3n2)CC1)OCc1nnc(-c2ccc(F)cc2)o1" is ____.
169 to 170 °C

====

# MEASURED_TARGET: enzyme FAAH (Fatty Acid Amide Hydrolase) (Mus musculus, UniProt O08914)
# Construct: The membrane homogenates are prepared extemporaneously by homogenizing the tissues; from tissue; host or cells: mouse brain (minus the cerebellum), membrane homogenate
# EXPERIMENTAL_DETAILS: FAAH fluorescent enzymatic test, hydrolysis of AAMC (Protocol 2)
# Type: biochemical
# DETAILS: mouse brain homogenate, AAMC 10 μM, preincubation 20 min at 25° C.
READOUT_KIND: IC50 (nM)
Output spec: scalar in nM, unitless text.

Fill in the blank: the reported IC50 of "CNC(=O)c1cc(COC(=O)NCCC2CCN(c3ccc(-c4ccc(F)cc4)cc3)CC2)on1" is ____.
0.7

====

# MEASURED_TARGET: enzyme FAAH (Fatty Acid Amide Hydrolase) (Mus musculus, UniProt O08914)
# Construct: The membrane homogenates are prepared extemporaneously by homogenizing the tissues; from tissue; host or cells: mouse brain (minus the cerebellum), membrane homogenate
# Sequence (O08914 1-579): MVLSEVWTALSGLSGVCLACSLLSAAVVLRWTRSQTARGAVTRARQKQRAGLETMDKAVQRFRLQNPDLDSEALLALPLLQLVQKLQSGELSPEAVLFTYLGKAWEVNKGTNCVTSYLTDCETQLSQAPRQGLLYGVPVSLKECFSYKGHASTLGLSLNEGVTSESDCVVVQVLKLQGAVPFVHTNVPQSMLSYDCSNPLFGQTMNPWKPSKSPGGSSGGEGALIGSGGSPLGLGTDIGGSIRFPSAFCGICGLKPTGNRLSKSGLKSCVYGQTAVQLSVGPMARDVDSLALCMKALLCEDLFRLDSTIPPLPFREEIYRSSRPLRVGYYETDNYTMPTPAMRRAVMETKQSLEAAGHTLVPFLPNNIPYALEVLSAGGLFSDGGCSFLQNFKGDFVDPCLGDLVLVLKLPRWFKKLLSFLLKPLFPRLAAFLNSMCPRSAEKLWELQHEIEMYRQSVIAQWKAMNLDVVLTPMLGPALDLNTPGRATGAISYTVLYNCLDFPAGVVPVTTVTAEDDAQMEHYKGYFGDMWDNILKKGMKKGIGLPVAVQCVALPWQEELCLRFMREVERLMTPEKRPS
# EXPERIMENTAL_DETAILS: FAAH radioenzymatic test, hydrolysis of anandamide [ethanolamine 1-3H] (Protocol 1)
# Format: biochemical
# DETAILS: mouse brain membrane homogenate, anandamide 10 μM, preincubation 20 min at 25° C.
READOUT_KIND: pIC50
Scale: pIC50 equals -log10([C]), with [C] in mol/L.

These solved cases illustrate the format of a correct answer.
                              line_notation                           measured_target  reported
0  O=C(NCCC1CCN(c2ccc(-c3ccc(F)cc3)cn2)CC1)OCc1csnn1  enzyme FAAH (Fatty Acid Amide Hydrolase) (Mus musculus, UniProt O08914)      8.70
1  NC(=O)c1cc(COC(=O)NCCC2CCN(c3ccc4cc(Cl)ccc4n3)CC2)on1  enzyme FAAH (Fatty Acid Amide Hydrolase) (Mus musculus, UniProt O08914)      9.00
2  Cn1ncnc1COC(=O)NCCC1CCN(c2ccc3cc(Cl)ccc3n2)CC1  enzyme FAAH (Fatty Acid Amide Hydrolase) (Mus musculus, UniProt O08914)      7.40
3  CCC1(CCNC(=O)OCc2cc(C(=O)NC)no2)CCN(c2cnc3cc(Cl)ccc3n2)CC1  enzyme FAAH (Fatty Acid Amide Hydrolase) (Mus musculus, UniProt O08914)      8.52
4  NC(=O)c1cc(COC(=O)NCCC2CCN(c3nccc(C(F)(F)F)n3)CC2)on1  enzyme FAAH (Fatty Acid Amide Hydrolase) (Mus musculus, UniProt O08914)      8.70

Fill in the blank: the reported pIC50 of "CN1CCN(C(=O)c2cc(COC(=O)NCCC3CCN(c4ccc(-c5ccc(F)cc5)cn4)CC3)on2)CC1" is ____.
7.80

Fill in the blank: the reported pIC50 of "NC(=O)c1cc(COC(=O)NCCC2CCN(c3ccc(-c4ccc(F)cc4)nn3)CC2)on1" is ____.
9.22

Fill in the blank: the reported pIC50 of "Cn1ccc(COC(=O)NCCCC2CCN(c3nccc(C(F)(F)F)n3)CC2)n1" is ____.
7.55
